assay: Solid-state chemical stability under different storage conditions (liquid chromatography); format: physicochemical; settings: 25° C., 60% RH; 0 days; liquid chromatography
Could you please report measured Stability of solid state compound, 0 Days (%) for the items listed next?
One number for each entry, in %.

Please review the entries below; each comes with its answer.
[[record]]
compound = "CC(=O)N[C@@]1(c2ccc(C(F)(F)F)cc2)CCC[C@@H](O)C1=O [Comparative compound 10, reference compound]"
measured_value = 99.77

[[record]]
compound = "CCN[C@@]1(c2ccc(C(F)(F)F)cc2)CCC[C@](C)(O)C1=O.Cl"
measured_value = 99.70

[[record]]
compound = "CC(=O)N[C@@]1(c2ccc(C(F)(F)F)cc2)CCC[C@](C)(O)C1=O"
measured_value = 99.69


Attention now shifts to the item below.
[ask] Would you mind telling me what Stability of solid state compound, 0 Days (%) value was observed for CCN[C@@]1(c2ccc(C(F)(F)F)cc2)CCC[C@@H](O)C1=O.Cl [Comparative compound 9, reference compound] ?
[reply] 98.2

----------
assay: In vivo pharmacokinetic experiments in beagle dogs; details: male, plasma, iv; beagle dog, 1 mg/kg i.v.
experimental readout: half-life (min)
Give bare numbers, in min.

[ask] Would you mind telling me what half-life value was observed for CN[C@@]1(c2ccc(C(F)(F)F)cc2)CCC[C@](C)(O)C1=O.Cl ?
[reply] 96.6

----------
assay: Solid-state chemical stability under different storage conditions (liquid chromatography); format: physicochemical; details: 40° C., 75% RH; 0 days; liquid chromatography
Counter-ions that a name gives are not always drawn.
Could you please report measured Stability of solid state compound, 0 Days (%) for the items listed next?
One number for each entry, in %.

Please review the entries below; each comes with its answer.
[[record]]
compound = "CN(C)[C@@]1(c2ccc(C(F)(F)F)cc2)CCC[C@@](C)(O)C1=O.Cl"
measured_value = 99.69

[[record]]
compound = "CC1(O)CCCC(N)(c2cccc(F)c2F)C1=O.Cl (centres unmarked)"
measured_value = 99.25

[[record]]
compound = "CN[C@@]1(c2ccc(C(F)(F)F)cc2)CCC[C@](C)(O)C1=O.Cl"
measured_value = 99.94

[[record]]
compound = "Cl.N[C@@]1(c2ccc(C(F)(F)F)cc2)CCC[C@@H](O)C1=O [Comparative compound 1, reference compound]"
measured_value = 99.98

[[record]]
compound = "CNC1(c2cccc(OC(F)(F)F)c2)CCCC(C)(O)C1=O.Cl (centres unmarked)"
measured_value = 99.82

[[record]]
compound = "Cl.N#Cc1cccc(C2(N)CCCC(O)C2=O)c1 (centres unmarked) [Comparative compound 7, reference compound]"
measured_value = 98.1


Hey, quick one: what's Stability of solid state compound, 0 Days (%) for each of these?
1. CNC1(c2cccc(OC(F)(F)F)c2F)CCCC(C)(O)C1=O.Cl (centres unmarked)
2. N[C@@]1(c2ccccc2Cl)CCC[C@@H](O)C1=O [(2R,6R)-HNK, reference compound]
3. CN[C@@]1(c2cccc(OC(F)(F)F)c2)CCC[C@](C)(O)C1=O.Cl
4. CNC1(c2c(F)cc(F)cc2F)CCCC(C)(O)C1=O.Cl (centres unmarked)
5. CNC1(c2cccc(OC(F)(F)F)c2)CCCC(O)C1=O.Cl (centres unmarked) [Comparative compound 11, reference compound]

[reply]
1: 99.61; 2: 99.18; 3: 99.12; 4: 99.34; 5: 98.15

Hey, quick one: what's Stability of solid state compound, 0 Days (%) for each of these?
1. Cl.N[C@]1(c2ccc(C(F)(F)F)cc2)CCC[C@H](O)C1=O [Comparative compound 2, reference compound]
2. CC1(O)CCCC(N)(c2cccc(OC(F)(F)F)c2F)C1=O (centres unmarked) [Compound 43, hydrochloride]
3. CN[C@@]1(c2ccccc2Cl)CCC[C@](C)(O)C1=O.Cl
4. Cl.NC1(c2c(F)cc(F)cc2F)CCCC(O)C1=O (centres unmarked) [Comparative compound 13, reference compound]
5. CN[C@@]1(c2ccc(C(F)(F)F)cc2)CCC[C@@](C)(O)C1=O.Cl
6. CC1(O)CCCC(N)(c2c(F)cc(F)cc2F)C1=O (centres unmarked) [Compound 44, hydrochloride]
7. CN[C@@]1(c2ccc(C(F)(F)F)cc2)CCC[C@@H](O)C1=O.Cl [Comparative compound 8, reference compound]
8. Cl.NC1(c2cccc(F)c2F)CCCC(O)C1=O (centres unmarked) [Comparative compound 12, reference compound]

[reply]
1: 99.48; 2: 98.73; 3: 98.36; 4: 98.31; 5: 99.67; 6: 98.45; 7: 98.4; 8: 97.16

Hey, quick one: what's Stability of solid state compound, 0 Days (%) for each of these?
1. CN[C@@]1(c2ccccc2Cl)CCC[C@@](C)(O)C1=O.Cl
2. Cl.[2H]C([2H])([2H])N[C@@]1(c2ccc(C(F)(F)F)cc2)CCC[C@](C)(O)C1=O
3. CN[C@]1(c2ccc(C(F)(F)F)cc2)CCC[C@@](C)(O)C1=O.Cl
4. CC1(O)CCCC(N)(c2cccc(C#N)c2)C1=O.Cl (centres unmarked)
5. CN[C@@]1(c2cccc(C#N)c2)CCC[C@](C)(O)C1=O.Cl
6. C[C@@]1(O)CCC[C@@](N)(c2ccc(C(F)(F)F)cc2)C1=O.Cl

[reply]
1: 97.84; 2: 99.88; 3: 99.85; 4: 98.89; 5: 99.88; 6: 99.89

Hey, quick one: what's Stability of solid state compound, 0 Days (%) for each of these?
1. Cl.NC1(c2cccc(OC(F)(F)F)c2F)CCCC(O)C1=O (centres unmarked) [Comparative compound 14, reference compound]
2. CNC1(c2cccc(C#N)c2)CCCC(C)(O)C1=O.Cl (centres unmarked)
3. CNC1(c2cccc(F)c2F)CCCC(C)(O)C1=O.Cl (centres unmarked)
4. C[C@]1(O)CCC[C@@](N)(c2ccc(C(F)(F)F)cc2)C1=O.Cl

[reply]
98.58
99.67
99.54
99.27
